Values from patent US8669072B2

Readings of Rel Max FI, 13B3 assay for the listed compounds
- Target Under Test: GAL4 DBD-CfEcR(DEF)/VP16AD-MmRXRE (Choristoneura fumiferana)
- Construct: The wild-type D, E, and F domains from spruce budworm Choristoneura fumiferana EcR (“CfEcR-DEF”)
- Protocol Notes: 13B3 assay: luciferase reporter gene induction in stable CHO clone 13B3
- Assay type: cell-based
- Condition Set: maximum fold induction relative to that of GS-E ligand
Just the number.

Here are 4 compounds together with their reported answers.
Q: Item under review: CCc1ccc(C(=O)NN2C(c3ccccc3)=NOC23CCCC3)cc1 [RG-120125] . Reported Rel Max FI, 13B3 assay?
Result: 0.16

Q: Param item = CCc1c(OC)cccc1C(=O)NN1C(c2ccccc2)=NOC1(C)CC (centres unmarked) [RG-120076] ; retrieve measured Rel Max FI, 13B3 assay.
Result: 0.05

Q: Item CCc1c(OC)cccc1C(=O)NN1C(c2cc(C)cc(C)c2)=NOC1(C)CC (centres unmarked) [RG-120069] has what recorded Rel Max FI, 13B3 assay?
Result: 1.02

Q: Need Rel Max FI, 13B3 assay, item CCc1c(OC)cccc1C(=O)NN1C(c2cc(C)cc(C)c2)=NOC1(C)C [RG-120080]
Result: 1.04

Further cases:
Q: What does the data say about its Rel Max FI, 13B3 assay? Entry: CCc1c(OC)cccc1C(=O)NN1C(c2cc(C)cc(C)c2)=NOC12CCCC2 [RG-120049]
Result: 1.56

* * *

- Target Under Test: GAL4 DBD-CfEcR(DEF)/VP16AD-MmRXRE (Choristoneura fumiferana, UniProt O77240)
- Construct: The wild-type D, E, and F domains from spruce budworm Choristoneura fumiferana EcR (“CfEcR-DEF”)
- Protocol Notes: 13B3 assay: luciferase reporter gene induction in stable CHO clone 13B3
- Assay type: cell-based
- Condition Set: 33/33.3 μM ligand, 48 h, RLU relative to DMSO; read-out: Fold Induction Average, 13B3 assay
Listed below: fold induction at 33.3 µM values for each entry.

Example compounds with recorded fold induction at 33.3 µM:
Q: // query fold induction at 33.3 µM value for entry COc1cccc(C(=O)NN2C(c3cc(C)cc(C)c3)=NOC23CCc2ccccc2C3)c1C (centres unmarked) [RG-120037]
Result: 0.3

Q: Requested read-out: fold induction at 33.3 µM. Entry: CCc1c(OC)cccc1C(=O)NN1C(c2ccc(OC)cc2OC)=NOC1(C)C [RG-120058]
Result: 0.3

Q: // returns reported fold induction at 33.3 µM for input CCc1ccc(C(=O)NN2C(c3ccccc3)=NOC23CCOCC3)cc1 [RG-120124]
Result: 1.2

Q: Which fold induction at 33.3 µM is reported for this compound? CCc1c(OC)cccc1C(=O)NN1C(c2ccccc2OC)=NOC1(C)C [RG-120016]
Result: 4.4

Q: Need fold induction at 33.3 µM, item COc1cccc(C(=O)NN2C(c3cc(C)cc(C)c3)=NOC2(C)C)c1C [RG-120045]
Result: 1410

Q: Param item = COc1cccc(C(=O)NN2C(c3cc(C)cc(C)c3)=NOC23CCOCC3)c1C [RG-120086] ; retrieve measured fold induction at 33.3 µM.
Result: 4

Q: I would be grateful if you could share the reported fold induction at 33.3 µM for CCc1ccc(C(=O)NN2C(c3ccc(OC)cc3OC)=NOC2(C)C)cc1 [RG-120135] .
Result: 0.4

Q: Using the record for Cc1cc(C)cc(C2=NOC(C)(C)N2NC(=O)c2ccc(Cl)cc2)c1 [RG-120024] , report its fold induction at 33.3 µM.
Result: 2.1

Q: Query: fold induction at 33.3 µM; subject: Cc1cc(C)cc(C2=NOC(C)(C)N2NC(=O)c2cccc(F)c2)c1 [RG-120002]
Result: 0.2

Q: Returns the measured fold induction at 33.3 µM for the input compound. Input: Cc1cc(C)cc(C2=NOC(C)(C)N2NC(=O)Nc2ccccc2)c1 [RG-120072]
Result: 0.6

***
Q: Find the recorded fold induction at 33.3 µM belonging to CCc1c(OC)cccc1C(=O)NN1C(c2ccccc2)=NOC12CCOCC2 [RG-120159] and report it.
Result: 0.1

Q: What does the record list as fold induction at 33.3 µM for CCc1c(OC)cccc1C(=O)NN1C(c2cc(C)cc(C)c2)=NOC12CCCC2 [RG-120049] ?
Result: 2660

Q: Entry CCc1ccc(C(=O)NN2C(c3ccccc3)=NOC2(C)CC)cc1 (centres unmarked) [RG-120137] : reported fold induction at 33.3 µM = ?
Result: 5.3

Q: Would you mind telling me what fold induction at 33.3 µM value was observed for CCc1ccc(C(=O)NN2C(c3ccc4c(c3)OCO4)=NOC2(C)C)cc1 [RG-120061] ?
Result: 0.4

Q: Fill in the blank: the reported fold induction at 33.3 µM of CCc1ccc(C(=O)NN2C(c3cc(C)cc(C)c3)=NOC23CCCC3)cc1 [RG-120040] is ____.
Result: 174

Q: Fill in the blank: the reported fold induction at 33.3 µM of CCC1(C)ON=C(c2ccccc2)N1NC(=O)c1ccccc1 (centres unmarked) [RG-120118] is ____.
Result: 0.8

Q: Fill blank: measured fold induction at 33.3 µM of the compound CCc1ccc(C(=O)NN2C(c3ccc(OC(F)(F)F)cc3)=NOC2(C)C)cc1 [RG-120055] is ____.
Result: 0.7
